# Measured Target: L-lactate dehydrogenase A chain (Homo sapiens)
# Assay Procedure: Inhibition of LDHA in human A673 cells assessed as reduction in lactate production incubated for 2 hrs by fluorescence based assay
# Format: cell-based
Result Type: IC50 (nM)

Solved entries (count: 6):
INSERT INTO measurements (molecule, reported_result) VALUES
  ('NS(=O)(=O)c1ccc(Cc2c(-c3ccc(F)c(OCc4cccc(F)c4)c3)nn(-c3nc(C(=O)O)cs3)c2CC2CC2)cc1F', 730),
  ('NS(=O)(=O)c1ccc(Cc2c(-c3cccc(N4CCOCC4)c3)nn(-c3nc(C(=O)O)cs3)c2CC2CC2)cc1F', 9400),
  ('NS(=O)(=O)c1ccc(Cc2c(-c3cccc(OCc4ccccc4)c3)nn(-c3nc(C(=O)O)cs3)c2CC2CC2)cc1F', 590),
  ('NS(=O)(=O)c1ccc(Cc2c(-c3cccc(Nc4ccccc4)c3)nn(-c3nc(C(=O)O)cs3)c2CC2CC2)cc1', 3100),
  ('NS(=O)(=O)c1ccc(Cc2c(-c3ccc(F)c(C(=O)NCc4ccccc4)c3)nn(-c3nc(C(=O)O)cs3)c2CC2CC2)cc1F', 4700),
  ('NS(=O)(=O)c1ccc(Cc2c(-c3ccc(F)c(OCC4CC4(F)F)c3)nn(-c3nc(C(=O)O)cs3)c2CC2CC2)cc1F (stereo unspecified)', 1100);

I = Cc1ccc(Oc2cc(-c3nn(-c4nc(C(=O)O)cs4)c(CC4CC4)c3Cc3ccc(S(N)(=O)=O)c(F)c3)ccc2F)cc1
II = NS(=O)(=O)c1ccc(Cc2c(-c3ccc(F)c(NC(=O)c4ccccc4)c3)nn(-c3nc(C(=O)O)cs3)c2CC2CC2)cc1F
III = NS(=O)(=O)c1ccc(Cc2c(-c3ccc(F)c(C(=O)N4CCCC4)c3)nn(-c3nc(C(=O)O)cs3)c2CC2CC2)cc1F
IV = NS(=O)(=O)c1ccc(Cc2c(-c3ccc(F)c(OCc4ccc(C(F)(F)F)o4)c3)nn(-c3nc(C(=O)O)cs3)c2CC2CC2)cc1F
**Query** Highest IC50 first, then in falling order down to the smallest. Return the labels ranked in the requested order, please.
**Result** III, II, IV, I

====

# Measured Target: L-lactate dehydrogenase A chain (Homo sapiens, UniProt P00338)
# Assay Procedure: Inhibition of recombinant human LDHA using sodium pyruvate as substrate preincubated for 5 mins followed by diaphorase/resazurin addition and measured after 20 mins by fluorescence based assay
Result Type: IC50 (nM)

INSERT INTO measurements (compound, result_type, reported_result) VALUES
  ('NS(=O)(=O)c1ccc(Cc2c(-c3ccc(F)c(OCC4CCCO4)c3)nn(-c3nc(C(=O)O)cs3)c2CC2CC2)cc1F (stereo not given)', 'IC50', 5),
  ('NS(=O)(=O)c1ccc(Cc2cn(-c3nc(C(=O)O)cs3)nc2-c2cccc(Oc3ccccc3)c2)cc1', 'IC50', 17),
  ('NS(=O)(=O)c1ccc(Cc2c(-c3ccc(F)c(OCC4CCOC4)c3)nn(-c3nc(C(=O)O)cs3)c2CC2CC2)cc1F (stereo not given)', 'IC50', 5),
  ('CC(C)N1CC2(CN(c3cc(-c4nn(-c5nc(C(=O)O)cs5)c(CC5CC5)c4Cc4ccc(S(N)(=O)=O)c(F)c4)ccc3F)C2)C1', 'IC50', 37);

1 = NS(=O)(=O)c1ccc(Cc2cn(-c3nc(C(=O)O)cs3)nc2-c2cccc(OCC3CCCC3)c2)cc1
2 = NS(=O)(=O)c1ccc(Cc2c(-c3ccc(F)c(Oc4ccc(C(F)(F)F)cc4)c3)nn(-c3nc(C(=O)O)cs3)c2CC2CC2)cc1F
3 = NS(=O)(=O)c1ccc(Cc2c(-c3cccc(Nc4ccccc4)c3)nn(-c3nc(C(=O)O)cs3)c2CC2CC2)cc1
4 = NS(=O)(=O)c1ccc(Cc2c(-c3ccc(F)c(C(=O)NCc4ccccc4)c3)nn(-c3nc(C(=O)O)cs3)c2CC2CC2)cc1F
**Query** Exam item: list the entries in increasing order of IC50. Put the labels in the requested order and write them down.
**Result** 4, 1, 2, 3

a = NS(=O)(=O)c1ccc(Cc2c(-c3ccc(F)c(Oc4ccccc4)c3)nn(-c3nc(C(=O)O)cs3)c2CC2CC2)cc1
b = NS(=O)(=O)c1ccc(Cc2cn(-c3nc(C(=O)O)cs3)nc2-c2cccc(OCc3ccccn3)c2)cc1
c = CC(C)(C)NC(=O)c1cc(-c2nn(-c3nc(C(=O)O)cs3)c(CC3CC3)c2Cc2ccc(S(N)(=O)=O)c(F)c2)ccc1F
**Query** Output the entries ranked by IC50 from maximum down to minimum. In your reply, arrange the labels in the requested order.
**Result** a, b, c

====

pKd: −log10 of the molar value.
Notes on pKd obtained with L-lactate dehydrogenase A chain (Homo sapiens, UniProt P00338).
Result Type: pKd

Please review the entries below; each comes with its answer.
INSERT INTO measurements (molecule, result_type, reported_result) VALUES
  ('NS(=O)(=O)c1ccc(Cc2c(-c3cccc(OCc4ccccc4)c3)nn(-c3nc(C(=O)O)cs3)c2CC2CC2)cc1F', 'pKd', 10.80),
  ('NS(=O)(=O)c1ccc(Cc2c(-c3ccc(F)c(OCC4CC4(F)F)c3)nn(-c3nc(C(=O)O)cs3)c2CC2CC2)cc1F (stereo not given)', 'pKd', 11.10);

1 = NS(=O)(=O)c1ccc(Cc2c(-c3cccc(Nc4ccccc4)c3)nn(-c3nc(C(=O)O)cs3)c2CC2CC2)cc1
2 = NS(=O)(=O)c1ccc(Cc2c(-c3cccc(N4CCOCC4)c3)nn(-c3nc(C(=O)O)cs3)c2CC2CC2)cc1F
3 = NS(=O)(=O)c1ccc(Cc2c(-c3ccc(F)c(OCc4cccc(F)c4)c3)nn(-c3nc(C(=O)O)cs3)c2CC2CC2)cc1F
**Query** Arrange the 3 entries by pKd so the values rise. Answer by listing the labels in the requested order.
**Result** 1, 3, 2

====

# Assay Procedure: Metabolic stability in rat microsomes assessed as half life
# Format: ADME, Microsome
Result Type: t1/2 (min)

INSERT INTO measurements (smiles_structure, reported_result) VALUES
  ('NS(=O)(=O)c1ccc(Cc2c(-c3cccc(OCc4ccccc4)c3)nn(-c3nc(C(=O)O)cs3)c2CC2CC2)cc1F', 2.8);

A = Cc1ccc(Oc2cc(-c3nn(-c4nc(C(=O)O)cs4)c(CC4CC4)c3Cc3ccc(S(N)(=O)=O)c(F)c3)ccc2F)cc1
B = NS(=O)(=O)c1ccc(Cc2c(-c3ccc(F)c(C(=O)NCc4ccccc4)c3)nn(-c3nc(C(=O)O)cs3)c2CC2CC2)cc1F
**Query** Between the entries labelled A and B , which has a larger t1/2 value on record? Selection: enter the item's label.
**Result** B

====

# Measured Target: L-lactate dehydrogenase A chain (Homo sapiens, UniProt P00338)
# Assay Procedure: Inhibition of recombinant human LDHA using sodium pyruvate as substrate preincubated for 5 mins followed by diaphorase/resazurin addition and measured after 20 mins by fluorescence based assay
pIC50: −log10 of the molar value.
Result Type: pIC50

Example entries and their recorded answers appear below.
INSERT INTO measurements (molecule, reported_result) VALUES
  ('NS(=O)(=O)c1ccc(Cc2c(-c3cccc(OC4CCCC4)c3)nn(-c3nc(C(=O)O)cs3)c2CC2CC2)cc1F', 7.89),
  ('NS(=O)(=O)c1ccc(Cc2c(-c3ccc(F)c(N4CCCC4=O)c3)nn(-c3nc(C(=O)O)cs3)c2CC2CC2)cc1F', 6.95),
  ('NS(=O)(=O)c1ccc(Cc2c(-c3ccc(F)c(C(=O)N4CCOCC4)c3)nn(-c3nc(C(=O)O)cs3)c2CC2CC2)cc1F', 7.66),
  ('NS(=O)(=O)c1ccc(Cc2cn(-c3nc(C(=O)O)cs3)nc2-c2cccc(OCc3cccc(F)c3)c2)cc1', 7.59),
  ('NS(=O)(=O)c1ccc(Cc2c(-c3cccc(N4CCCC(C(F)(F)F)C4)c3)nn(-c3nc(C(=O)O)cs3)c2CC2CC2)cc1F (stereo not given)', 7.23),
  ('NS(=O)(=O)c1ccc(Cc2c(-c3cccc(N4CCOCC4)c3)nn(-c3nc(C(=O)O)cs3)c2CC2CC2)cc1F', 7.57);

A = NS(=O)(=O)c1ccc(Cc2c(-c3ccc(F)c(Oc4ccc(F)cc4)c3)nn(-c3nc(C(=O)O)cs3)c2CC2CC2)cc1F
B = NS(=O)(=O)c1ccc(Cc2cn(-c3nc(C(=O)O)cs3)nc2-c2cccc(OCc3cccnc3)c2)cc1
**Query** When the recorded pIC50 values are compared, which is smaller: that of A or that of B ? Kindly state the label of the option you pick.
**Result** B
(B: 7.11, A: 7.39)

====

# Assay Procedure: Metabolic stability in rat microsomes assessed as half life
# Format: ADME, Microsome
Result Type: t1/2

INSERT INTO assay_data (smiles_structure, reported_result) VALUES
  ('NS(=O)(=O)c1ccc(Cc2c(-c3ccc(F)c(NC(=O)c4ccccc4)c3)nn(-c3nc(C(=O)O)cs3)c2CC2CC2)cc1F', '> 30 min'),
  ('NS(=O)(=O)c1ccc(Cc2c(-c3cccc(Nc4ccccc4)c3)nn(-c3nc(C(=O)O)cs3)c2CC2CC2)cc1', '6 min'),
  ('NS(=O)(=O)c1ccc(Cc2c(-c3ccc(F)c(OC4CC4)c3)nn(-c3nc(C(=O)O)cs3)c2CC2CC2)cc1F', '> 30 min');

Short answer for NS(=O)(=O)c1ccc(Cc2c(-c3cccc(N4CCOCC4)c3)nn(-c3nc(C(=O)O)cs3)c2CC2CC2)cc1F : t1/2 was > 30 min
